Test system: OVCAR-5
testDescription: NCI tumour cell line growth inhibition, 48 h
Calls of active or inactive are those of the source. Rule as the data show it: active = GI50 up to about 1.1 µM and inactive = higher.
Reported values of GI50 for individual entries

Previously resolved entries follow.
compound	GI50
CCOC(=O)Cn1nnc2cc(Nc3nc4ccccc4nc3C(=O)OCC)ccc21	> 100 µM (inactive)
CN1C(=O)N(C)C2(CCN(CCCCCCF)CC2)C1=O	> 100 µM (inactive)
Cn1ncc2[nH]cnc2c1=S	> 100 µM (inactive)
O=c1c2nn3c(=O)n(-c4ccccc4)c(=O)c3nn2c(=O)n1-c1ccccc1	> 100 µM (inactive)
C[C@@H]1CC[C@]2(C)C3(C)CC[C@]2(OC3=O)[C@@]12CC(c1ccoc1)OC2=O (stereo partly specified)	30.8 µM (inactive)

Q: Could you share which GI50 value was measured for Cc1nc2c(s/c(=N\N)n2-c2ccccc2)c(=O)n1C ?
Ans: > 100 µM (inactive)

Q: Could you share which GI50 value was measured for COC(=O)CCC(NC(=S)N/N=C(\C)c1ccccn1)C(=O)OC (stereo unspecified) ?
Ans: 25.9 µM (inactive)

Q: Could you share which GI50 value was measured for CCCCNC(=O)CCN(C(=O)O)S(=O)(=O)c1ccc(NC(=O)c2ccccc2)cc1 ?
Ans: > 100 µM (inactive)
